Cited source for all entries: patent US20240368267A1

# Measured Target: T1, human IL-6 (human, UniProt P05231 30-212)
# T1 construct: also called interleukin-6
# T1 sequence (P05231 30-212 limits assumed): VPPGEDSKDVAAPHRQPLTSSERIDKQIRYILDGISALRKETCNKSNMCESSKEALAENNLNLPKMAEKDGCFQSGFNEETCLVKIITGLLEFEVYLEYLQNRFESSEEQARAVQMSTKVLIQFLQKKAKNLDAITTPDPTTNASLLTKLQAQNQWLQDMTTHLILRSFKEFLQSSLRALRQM
# Test Protocol: SPR (Biacore T200), antibody from cell supernatant captured on Protein A, IL-6 flowed over, 37 C
Measured Property: kon (M⁻¹ s⁻¹)
Quick note: give the figure in M⁻¹ s⁻¹, leave out the unit.

*Q* Query: kon; subject: anti-IL-6 antibody, heavy chain I51E, G66D / light chain WT (antibody, human IgG1, V domains shown, Derived as m2; Engineered human IgG1) VH: EVQLVESGGGLVQPGGSLRLSCAASGFTFSPFAMSWVRQAPGKGLEWVAKESPGGSWTYYSDTVTDRFTFSLDTSKSTAYLQMNSLRAEDTAVYYCARQLWGYYALDIWGQGTLVTVSS VL: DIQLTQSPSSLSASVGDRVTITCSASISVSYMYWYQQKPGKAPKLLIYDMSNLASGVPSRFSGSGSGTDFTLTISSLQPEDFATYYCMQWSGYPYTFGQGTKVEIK
*A* 754000

*Q* Record request: kon value, item anti-IL-6 antibody, heavy chain T63F, G66D / light chain WT (antibody, human IgG1, V domains shown, Derived as m2; Engineered human IgG1) VH: EVQLVESGGGLVQPGGSLRLSCAASGFTFSPFAMSWVRQAPGKGLEWVAKISPGGSWTYYSDFVTDRFTFSLDTSKSTAYLQMNSLRAEDTAVYYCARQLWGYYALDIWGQGTLVTVSS VL: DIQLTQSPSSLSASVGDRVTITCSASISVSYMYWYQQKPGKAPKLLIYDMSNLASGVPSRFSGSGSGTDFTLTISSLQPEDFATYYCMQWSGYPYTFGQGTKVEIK
*A* 1.81e+06

*Q* Which value of kon has been reported for anti-IL-6 antibody, heavy chain S35W, G66D / light chain WT (antibody, human IgG1, V domains shown, Derived as m2; Engineered human IgG1) VH: EVQLVESGGGLVQPGGSLRLSCAASGFTFSPFAMWWVRQAPGKGLEWVAKISPGGSWTYYSDTVTDRFTFSLDTSKSTAYLQMNSLRAEDTAVYYCARQLWGYYALDIWGQGTLVTVSS VL: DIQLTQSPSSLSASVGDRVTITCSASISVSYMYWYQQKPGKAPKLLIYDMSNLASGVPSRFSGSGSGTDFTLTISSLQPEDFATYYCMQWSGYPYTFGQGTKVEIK in the records?
*A* 92300

*Q* Recorded kon for anti-IL-6 antibody, heavy chain T63D, G66D / light chain WT (antibody, human IgG1, V domains shown, Derived as m2; Engineered human IgG1) VH: EVQLVESGGGLVQPGGSLRLSCAASGFTFSPFAMSWVRQAPGKGLEWVAKISPGGSWTYYSDDVTDRFTFSLDTSKSTAYLQMNSLRAEDTAVYYCARQLWGYYALDIWGQGTLVTVSS VL: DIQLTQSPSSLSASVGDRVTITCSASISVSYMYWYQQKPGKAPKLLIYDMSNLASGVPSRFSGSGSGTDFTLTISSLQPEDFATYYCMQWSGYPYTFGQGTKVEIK , please?
*A* 1.92e+06

*Q* Which value of kon has been reported for anti-IL-6 antibody, heavy chain S35V, G66D / light chain WT (antibody, human IgG1, V domains shown, Derived as m2; Engineered human IgG1) VH: EVQLVESGGGLVQPGGSLRLSCAASGFTFSPFAMVWVRQAPGKGLEWVAKISPGGSWTYYSDTVTDRFTFSLDTSKSTAYLQMNSLRAEDTAVYYCARQLWGYYALDIWGQGTLVTVSS VL: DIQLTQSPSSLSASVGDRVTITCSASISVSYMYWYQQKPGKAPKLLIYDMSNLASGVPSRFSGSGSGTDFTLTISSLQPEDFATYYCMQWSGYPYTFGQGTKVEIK in the records?
*A* 1.13e+06
